- targetSystem: nucleolin (NCL) (Homo sapiens, UniProt P19338 1-710)
- Sequence (P19338 whole entry): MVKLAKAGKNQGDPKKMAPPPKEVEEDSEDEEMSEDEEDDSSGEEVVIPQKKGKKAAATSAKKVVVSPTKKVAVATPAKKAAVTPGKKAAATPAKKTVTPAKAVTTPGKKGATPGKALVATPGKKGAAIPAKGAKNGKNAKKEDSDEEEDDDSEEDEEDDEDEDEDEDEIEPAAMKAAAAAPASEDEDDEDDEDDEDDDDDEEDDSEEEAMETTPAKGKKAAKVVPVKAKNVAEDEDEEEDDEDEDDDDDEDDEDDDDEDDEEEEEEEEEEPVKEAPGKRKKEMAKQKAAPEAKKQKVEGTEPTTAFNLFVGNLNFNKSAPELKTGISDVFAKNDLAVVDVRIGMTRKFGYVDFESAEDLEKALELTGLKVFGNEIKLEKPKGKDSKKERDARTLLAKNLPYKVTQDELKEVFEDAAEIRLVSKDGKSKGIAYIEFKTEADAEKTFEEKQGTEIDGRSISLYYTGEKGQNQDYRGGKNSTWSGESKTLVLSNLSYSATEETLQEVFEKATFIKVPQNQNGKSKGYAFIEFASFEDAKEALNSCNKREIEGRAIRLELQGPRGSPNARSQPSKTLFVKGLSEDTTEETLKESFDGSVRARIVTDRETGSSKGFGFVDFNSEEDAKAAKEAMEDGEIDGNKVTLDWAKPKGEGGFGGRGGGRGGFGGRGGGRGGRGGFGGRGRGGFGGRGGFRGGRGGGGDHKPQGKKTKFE
- assayProtocol: SPR; 70 mM KCl; SPR (Biacore X-100, CM5): 10 mM HEPES, 70 mM KCl, pH 7.4, 25 C; analyte 5-500 uM; two-state reaction fit
- conditionSummary: protein: commercial; antiparallel G4, two extra G-tetrads, intramolecular
propertyLabel: pKd
API: returns pKd as number; meaning -log10 of concentration in mol/L.

Req: Give pKd for the following binder: GGGGTTGGGGTGTGGGGTTGGGG (structured_DNA) [TBAG4]
Resp: 4.87
